assay: binders of r(CAG) RNA repeats, primary screen, biochemical, fluorescence (AID 651821); conditions: r(CAG) RNA repeat, TO-PRO-1 dye displacement fluorescence; at 3 µM; stronger effect = higher value;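 also: 0% = DMSO alone and 100% = 100 µM mitoxantrone as full dye displacement; higher means more dye released from RNA so lower well fluorescence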
About 4,700 (1.3%) of roughly 370,000 compounds were called active. The entries come from a sample that favours actives as a whole.
reported_endpoint: inhibition (%)
Give a bare numeral; the unit % is implied.

Solved cases below.
- NC(=O)CCN1CCN(S(=O)(=O)/C=C/c2ccccc2)CC1: -0.01
- O=C1/C(=C/c2cccs2)SC(=S)N1C1CCS(=O)(=O)C1 (stereo unspecified): -0.31

response.value for "Cc1cc(Br)cn2c(Cc3ccccc3C(F)(F)F)c(-c3ccc(Cl)cc3)nc12" (field: inhibition) = 11.8

response.value for "COc1ccc(-c2ccc3c(n2)CCCN3S(=O)(=O)c2ccc(C)cc2)cc1" (field: inhibition) = 4.71

response.value for "O=C(c1cccnc1)N(c1cc2sc(=O)oc2c2ccccc12)S(=O)(=O)c1ccccc1" (field: inhibition) = 80.7

response.value for "COc1ccc(CNC(=O)CCC(=O)Nc2nnc(C(C)C)s2)cc1" (field: inhibition) = -3.44

response.value for "O=C(CN(c1cc(C(F)(F)F)ccc1Cl)S(=O)(=O)c1ccccc1)NCc1cccnc1" (field: inhibition) = -7.03

response.value for CCOc1ccc(NC(=O)C(C)N2C(=O)c3ccccc3C2=O)cc1 (stereo unspecified) (field: inhibition) = -4.17

response.value for "Cc1cc(Br)cn2c(Cc3cccc(F)c3)c(-c3cccc(Br)c3)nc12" (field: inhibition) = 48.4

response.value for COc1ccc(OCCCC(=O)Nc2nnc(C3CCCO3)s2)cc1 (stereo unspecified) (field: inhibition) = -2.42

====

test: binders of r(CAG) RNA repeats, primary screen, biochemical, fluorescence (AID 651821); conditions: r(CAG) RNA repeat, TO-PRO-1 dye displacement fluorescence; at 3 µM; stronger effect = higher value
The campaign covered roughly 370,000 compounds. About 4,700 (1.3%) were called active. For the sample, actives were picked, then their nearest neighbours and some compounds at random.
reported_endpoint: inhibition

Solved cases below.
* CCn1c(SCC(C)=O)nc2sc3c(c2c1=O)CCCC3 | 4.43% (inactive)
* COC(=O)C(Cc1c[nH]c2ccccc12)NC(=O)CCNC(=O)c1ccco1 (centres undefined) | 2% (inactive)
* COc1ccccc1C(=O)N1O[C@]23C=C[C@]14C[C@@H](O)CC[C@]4(C)C2CC[C@]1(C)[C@@H]([C@H](C)/C=C/[C@H](C)C(C)C)CC[C@H]13 (some centres undefined) | 4.71% (inactive)

response.value for COc1ccc(-c2cc(C(=O)NC(Cc3c[nH]c4ccccc34)C(=O)O)c(C)o2)cc1OC (centres undefined) (field: inhibition) = 53.8% (active)

response.value for O=C1NC(=O)C2C1C(c1ccc([N+](=O)[O-])cc1)=NN2Cc1ccccc1 (centres undefined) (field: inhibition) = 10.9% (inactive)

response.value for "CC[C@H](NC(=O)[C@H](Cc1ccccc1)NC(=O)[C@H]1O[C@@H](n2cnc3c(=O)[nH]c(N)nc32)[C@H](O)[C@@H]1O)c1ccccc1" (field: inhibition) = 14.3% (inactive)

response.value for CCOCCCNC(=O)C(NC(=O)Cc1c[nH]c2ccccc12)c1ccc(OC)cc1 (centres undefined) (field: inhibition) = -4.93% (inactive)

response.value for "COc1ccccc1CCn1cnc(-c2ccccc2)c1C(C)C" (field: inhibition) = -1.16% (inactive)

response.value for COC(=O)C(C)Oc1ccc2c(-c3cccc([N+](=O)[O-])c3)cc(=O)oc2c1 (centres undefined) (field: inhibition) = 1.44% (inactive)

response.value for "CSCC[C@H](NC(=O)OC(C)(C)C)C(=O)N/N=C/c1cc2ccc(C)cc2nc1Cl" (field: inhibition) = 3.07% (inactive)

====

experiment: binders of r(CAG) RNA repeats, primary screen, biochemical, fluorescence (AID 651821); conditions: r(CAG) RNA repeat, TO-PRO-1 dye displacement fluorescence; at 3 µM; stronger effect = higher value
Hit rate of the full screen: of about 370,000 compounds, about 4,700 (1.3%) were called active. Many of the other results were omitted from the sample, so actives are more common in it than they were.
Decide by inhibition: equal to or exceeding 2% means yes, less means no.

// known answers, use as guide
• Cc1cc(C(=O)N/N=C/c2ccc(O)c([N+](=O)[O-])c2)c(C)n1-c1ccc(F)cc1 = yes
• Nc1cccc(-c2cncc(N3CCN(Cc4ccccn4)CC3)n2)c1 = yes
• Cc1noc(C)c1C(=O)N1CCC1(C)C(=O)NS(=O)(=O)c1ccc(C#N)cc1 (centres undefined) = no
• Cc1c(Cl)c([N+](=O)[O-])nn1Cc1ccc(C(=O)N/N=C\c2cc(Cl)ccc2O)o1 = yes
• CC(Oc1ccccc1[N+](=O)[O-])C(=O)N/N=C/c1ccoc1 (centres undefined) = yes
• N[C@@H](Cc1ccccc1)C(=O)N1CCC[C@@H]1C(=O)N1CCC2CCN(S(=O)(=O)c3ccccc3)CC21 (some centres undefined) = no
• C=CCN1C(=O)[C@@H](CC(=O)N2CCN(C(=O)OCC)CC2)[C@]2(C(=O)OCC)CCCCC/C=C/12 = no

--- query ---
-- ask Does the molecule "CCCCCCCCN1C(=O)[C@@H](CC(=O)NCc2ccc(C)o2)C[C@@]2(C(=O)OC)C1=C[C@H](C(C)(C)C)O[C@@H]2C" have recorded inhibition that is 2% or more?
-- reply no

====

test: binders of r(CAG) RNA repeats, primary screen, biochemical, fluorescence (AID 651821); settings: r(CAG) RNA repeat, TO-PRO-1 dye displacement fluorescence; at 3 µM; stronger effect = higher value;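 also: 0% = DMSO alone and 100% = 100 µM mitoxantrone as full dye displacement; higher means more dye released from RNA so lower well fluorescence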
The whole screen tested about 370,000 compounds, of which about 4,700 (1.3%) were called active. This excerpt belongs to a sample that is enriched for actives.
Recorded inhibition by entry
Give a bare numeral; the unit % is implied.

• Cc1ccc(NC(=O)c2cc(C)nn2-c2ccccc2)c(C)c1 = 2.01
• Cc1cccc(N=Nc2c(O)[nH]c3ccc(F)cc23)c1 = 17.5

response.value for COc1cc(NC(=O)C2CCCN(S(=O)(=O)c3ccc(C(C)(C)C)cc3)C2)cc(OC)c1 (stereo not given) (field: inhibition) = 9.76

response.value for "Cc1ccc(S(=O)(=O)N(Cc2ccccc2)c2ccccn2)cc1[N+](=O)[O-]" (field: inhibition) = -3.84

response.value for "CCOc1ccc2sc(NS(=O)(=O)c3ccc(N)cc3)nc2c1" (field: inhibition) = 9.5

====

test: binders of r(CAG) RNA repeats, primary screen, biochemical, fluorescence (AID 651821); conditions: r(CAG) RNA repeat, TO-PRO-1 dye displacement fluorescence; at 3 µM; stronger effect = higher value;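 also: 0% = DMSO alone and 100% = 100 µM mitoxantrone as full dye displacement; higher means more dye released from RNA so lower well fluorescence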
Screen size: about 370,000 compounds; about 4,700 (1.3%) were called active. For the sample, actives were picked, then their nearest neighbours and some compounds at random.
Recorded inhibition by entry
Give a bare numeral; the unit % is implied.

* COC(=O)C1CN(CCc2ccccc2)CCS(=O)(=O)N1Cc1ccc(F)cc1 (stereo not given) | 5.69
* N#Cc1c(-c2ccc(Cl)cc2)c2c([nH]c1=S)CCCC2 | 17.9
* Cc1c[nH]c2cccc(-c3ccc(Cl)cc3)c12 | 1.17
* COc1ccc(C(=O)c2c(C)oc3cc([N+](=O)[O-])c(O)c([N+](=O)[O-])c23)cc1 | 24.7

response.value for COc1cc(C2C(C(=O)c3ccco3)=C(O)C(=O)N2c2cc(C)on2)ccc1OCc1ccccc1 (stereo not given) (field: inhibition) = 10.3

response.value for O=C(C1CCCN1S(=O)(=O)c1ccccc1)N1CCc2ccccc2C1 (stereo not given) (field: inhibition) = 0.6

response.value for "Cn1c2ccccc2c2cc(/C=C(\NC(=O)c3ccccc3)C(=O)NCC(=O)O)ccc21" (field: inhibition) = 35.8

response.value for "CCn1cc(/C=C(\NC(=O)c2ccc(C)cc2)C(=O)NCCN2CCOCC2)c2ccccc21" (field: inhibition) = -0.63

response.value for "Cc1cc(O)c(NC(=O)c2ccc(C)c([N+](=O)[O-])c2)cc1C" (field: inhibition) = 4.43

response.value for CC(C)(C)C(c1nc2ccccc2[nH]1)n1c(Cc2csc3ccccc23)nc2ccccc21 (stereo not given) (field: inhibition) = 6.22

====

assay: binders of r(CAG) RNA repeats, primary screen, biochemical, fluorescence (AID 651821); conditions: r(CAG) RNA repeat, TO-PRO-1 dye displacement fluorescence; at 3 µM; stronger effect = higher value;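 also: 0% = DMSO alone and 100% = 100 µM mitoxantrone as full dye displacement; higher means more dye released from RNA so lower well fluorescence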
About 4,700 (1.3%) of roughly 370,000 compounds were called active. This excerpt belongs to a sample that is enriched for actives.
reported_endpoint: inhibition (%)
Give a bare numeral; the unit % is implied.

* O=C(CSc1nnc(-c2ccccn2)n1-c1ccc(Cl)cc1)Nc1ccccc1-c1ccccc1 | 8.25
* CC(=O)c1cc(-c2ccc3ccccc3c2)c(=O)n2c1CCC2 | 5.03
* Cc1ccc(C(C)C)c(OCCSc2nc3ccccc3n2CC(=O)O)c1 | 40.7
* CN(C(=O)CSc1nnc(Nc2ccccc2)s1)C1CCS(=O)(=O)C1 (centres undefined) | 0.39
* COc1ccccc1OCCn1c(SCC(N)=O)nc2ccccc21 | 1.66

response.value for CC(CC(=O)N1CCN(c2ccccc2)CC1)S(=O)(=O)c1ccc2c(c1)NC(=O)CS2 (centres undefined) (field: inhibition) = -1.08

response.value for CC(C)=CCCC1(C)C=Cc2c(ccc3c2[nH]c2cc(O)c(C)cc23)O1 (centres undefined) (field: inhibition) = 50.7

response.value for "CC1=CC2=NC(=O)/C(=C/c3coc4ccccc4c3=O)C(=N)N2O1" (field: inhibition) = -66.6

response.value for "COC(=O)[C@]12C[C@H](CC(=O)NCc3ccc(C)o3)C(=O)N(CCC3=CCCCC3)C1=C[C@H](C(C)(C)C)O[C@@H]2C" (field: inhibition) = 0.73

response.value for "O=C(Nc1ccccc1)Nc1nnc(COc2ccccc2F)s1" (field: inhibition) = 56.5

response.value for C=CCN1C(C(=O)OC)CN(Cc2cn(Cc3ccccc3)nn2)CCS1(=O)=O (centres undefined) (field: inhibition) = 3.76

response.value for "COC(=O)[C@]1(C#N)CC(=O)N(CC2CCCCC2)[C@@H]1c1ccccc1" (field: inhibition) = 0.85

response.value for "CCOc1ccc(NC(=O)CSc2nc3ccccc3c(=O)n2Cc2cccs2)cc1" (field: inhibition) = 1.43

response.value for "CC(C)Nc1nnc(SCC(=O)c2c[nH]c3ccccc23)s1" (field: inhibition) = 3.39

response.value for "CSc1ccc(C=Nn2c(-c3ccc(F)cc3)n[nH]c2=S)cc1" (field: inhibition) = 45.4

response.value for "CCCCNc1cccc2c1S(=O)(=O)N[C@@H](C)CO2" (field: inhibition) = 0.84

response.value for "CCOC(=O)C1=C(O)/C(=C/c2cc(C)n(-c3ccccc3)c2C)N=C1C" (field: inhibition) = 8.38

response.value for "Cc1cc(/C=C2/C(=N)N3C(=NC2=O)SN=C3S(C)(=O)=O)c(C)n1-c1ccccc1" (field: inhibition) = 58.3

response.value for "CCOc1ccc(-n2c(SCC(=O)Nc3cc(C(=O)O)ccc3Cl)nc3ccccc3c2=O)cc1" (field: inhibition) = 46.3

response.value for "CCCC[C@H](C(=O)N(CC)c1ccccc1)[C@@H](O)c1ccc2ccccc2c1" (field: inhibition) = 4.92

response.value for "CCOC(=O)c1cc2cc(-c3c(C(=O)OCC)oc4cc(O)cc(O)c4c3=O)ccc2o1" (field: inhibition) = 42.5
